Origin of the recorded values: a melting point compilation (Tetko et al.; mined from patent text by program, amines drawn as free bases though some values may be those of a salt)

quantity.name: melting point

Field: example entries. Status: answers known.
1. COc1ccc(-c2[nH]nc3c2C(=O)c2c(NC(=O)NNC(=O)c4ccccc4O)cccc2-3)cc1: 280 °C
2. CC1CN(C)Cc2cc(-c3ccccc3)n(Cc3ccccc3)c21 (stereo not given): 90 to 91 °C
3. O=C(Cc1ccccc1)NC1SCCN1Cc1ccc(Cl)nc1 (stereo not given): 157 to 158 °C
4. CC(C)C1Nc2ccc(S(=O)(=O)N3CCCCC3)cc2S(=O)(=O)N1 (stereo not given): 237 to 239 °C
5. CC(C)c1ccc(Oc2ccc(C(=O)C=CC(=O)O)cc2)cc1: 133 to 134 °C
6. CC(C)(O)c1nc(-c2ccc(-c3cnc4[nH]c(=O)n(CC5CCOCC5)c4n3)cc2)n[nH]1: 249 to 253 °C
7. COc1ccc(C(CBr)(OC)OC)cc1: 52 to 53 °C
8. CC(C)(C)c1nnc(NN)s1: 111 to 112 °C
9. CNc1nc(-c2cccc(-n3cccc3)c2)c2cc(OC)c(OC)cc2n1: 199 to 201 °C

Alright, here's another molecule for you.
Retrieve melting point measured for `CC(=O)NCc1ccc2c(c1)N(C1CCNCC1)CC2` and print it.
165 to 167 °C

----------
Documented melting point across a set of molecules

1) Cc1nc(-c2ccc3c(c2)CCCC3)c(C(=O)O)o1: 183 to 185 °C
2) CS(=O)(=O)c1ccc(-c2sc(CCc3ccccc3)nc2-c2ccc(F)cc2)cc1: 153 to 154 °C
3) COC(=O)C=Cc1c(C(=O)OC)c2c(n1C)C(=O)C=C(OC)C2=O: 235 to 236 °C
4) CCOC(=O)c1c(Cl)nn(-c2c(Cl)cc(C(F)(F)F)cc2Cl)c1N: 143 to 146 °C

Alright, here's another molecule for you.
Retrieve melting point measured for `Nc1cc(Cl)cc(Nc2ncnc3[nH]cc(C(=O)c4ccccc4)c23)c1` and print it.
> 300 °C

----------
Documented melting point across a set of molecules

Retrieve melting point measured for `Cn1ncc(C#N)c1-c1ccc([N+](=O)[O-])o1` and print it.
150 to 152 °C

Retrieve melting point measured for CCCCc1nc(S(C)=O)c(C(=O)OCC)n1CC1Oc2ccc(Cl)cc2O1 (stereo unspecified) and print it.
103 °C

----------
Documented melting point across a set of molecules

Field: example entries. Status: answers known.
1. Cc1cc2c(s1)Oc1ccccc1N=C2N1CC2CCC(C1)N2C: 156 to 159 °C
2. Oc1ccc(Cl)cc1C(O)(C1CCCCC1)C1CCCCC1: 230 °C
3. O=[N+]([O-])c1cc(Br)ccc1-c1ccc(Br)cc1[N+](=O)[O-]: 143 to 146 °C

Retrieve melting point measured for `CCOC(=O)CCCC(=O)CNC(=O)c1csc(NC(=O)NCc2ccccc2)n1` and print it.
135 to 136 °C

Retrieve melting point measured for `Nc1ccc2ncnc(Nc3cccc(C(F)(F)F)c3)c2c1` and print it.
190 to 192 °C

----------
quantity.name: melting point

1) Cc1ccc(-c2cncnc2C#N)cc1: 107 to 109 °C
2) CN1CCN(c2ccnc3c(NC(=O)c4ccccc4[N+](=O)[O-])cccc23)C1=O: 226 to 228 °C
3) COC1(c2cc(F)cc(Sc3ccc4c(c3)SCC(=O)N4C)c2)CCOCC1: 131 to 133 °C
4) CCOP(=O)(CCc1cn(-c2ccccc2)nc1O)OCC: 121 to 122 °C
5) CC(=O)OCC1Cc2c(c3cccnc3n(-c3ccccc3)c2=O)O1 (stereo not given): 207 to 208 °C

Retrieve melting point measured for `Cc1oncc1C(=O)Nc1ccc(-n2nc(C3CC3)cc2C2CC2)cc1` and print it.
153 to 158 °C

Retrieve melting point measured for COc1cc(C(O)c2ccccc2S(=O)(=O)Nc2ccccc2C)cc2c1OCO2 (stereo not given) and print it.
155 to 158 °C
